- Test Description: phenyl-p-benzoquinone writhing assay (analgesic activity)
- Format: in vivo, male mice (Charles River, CD-1)
- Recorded Conditions: Mus musculus, sc; mice, 20 mg/kg, s.c.; read-out: % Inhibition of writhing at a screening dose of 20 mg/kg, s.c.
Counter-ions that a name gives are not always drawn.
Everything with inhibition in vivo at 20 mg/kg lower than 40% is no (0); everything else, including exactly 40%, is yes (1).

>  <Compound>
CN1[C@@H]2CC[C@H]1C[C@H](Oc1c(F)c(F)c(F)c(F)c1F)C2 [hydrochloride]

>  <Label>
yes (1)

$$$$
>  <Compound>
Cc1[nH]c2ccccc2c1CCCN1[C@@H]2CC[C@H]1C[C@H](Oc1c(F)c(F)c(F)c(F)c1F)C2 [HYDROCHLORIDE]

>  <Label>
yes (1)

$$$$
>  <Compound>
CN1[C@@H]2CC[C@H]1C[C@@H](Oc1c(F)c(F)c(F)c(F)c1F)C2

>  <Label>
yes (1)

$$$$

Incoming: Given NC(=O)N1[C@@H]2CC[C@H]1C[C@H](Oc1c(F)c(F)c(F)c(F)c1F)C2 , state whether its inhibition in vivo at 20 mg/kg is at least 40%.
Outgoing: no (0)

Incoming: Check if inhibition in vivo at 20 mg/kg >= 40% (inclusive). Item: Fc1ccc2c(CCCN3[C@@H]4CC[C@H]3C[C@@H](Oc3c(F)c(F)c(F)c(F)c3F)C4)noc2c1 [HYDROCHLORIDE]
Outgoing: yes (1)

Incoming: Identify whether the reported inhibition in vivo at 20 mg/kg of the following compound is 40% or greater: CN1[C@@H]2CC[C@H]1C[C@](Oc1c(F)c(F)c(F)c(F)c1F)(c1ccccc1)C2 [hydrochloride]
Outgoing: yes (1)
